Tested on: CCRIS mutagenicity, Ames/micronucleus/aberration tests
experiment_summary: CCRIS mutagenicity studies
condition_parameters: Test System: AMES SALMONELLA TYPHIMURIUM; Strain/Indicator: TA98; Metabolic Activation: RAT, LIVER, S-9; Method: PREINCUBATION
Activity calls are given as the source filed them. How the calls were made is not given here.
Form entry, call: pick from TRUE = active, FALSE = inactive

Use the examples below as a reference point.
- compound: "Clc1ccc2ccccc2n1"
  target_or_system: "CCRIS mutagenicity, Ames/micronucleus/aberration tests"
  class_name: "FALSE"
- compound: "Oc1c(Cl)cc(Cl)c2cccnc12"
  target_or_system: "CCRIS mutagenicity, Ames/micronucleus/aberration tests"
  class_name: "FALSE"
- compound: "Cc1cc2ccccc2c2ccc3ccccc3c12"
  target_or_system: "CCRIS mutagenicity, Ames/micronucleus/aberration tests"
  class_name: "TRUE"

Query block: Could you kindly confirm the outcome this assay logged for O=C(O)C(F)(F)C(F)(Cl)C(F)(F)C(F)(Cl)C(F)(F)Cl (configuration not stated) ?
Result block: FALSE

Query block: Also need O=C1c2cccc(O)c2C(=O)c2c(O)cc(CO)cc21 , thanks.
Result block: TRUE

Query block: And then c1ccc2cnccc2c1 , what is it?
Result block: FALSE

Query block: Next entry: C1O[C@@H]1[C@@H]1CO1
Result block: FALSE

----------
Test system: CCRIS mutagenicity, Ames/micronucleus/aberration tests
experiment_summary: CCRIS mutagenicity studies
condition_parameters: Test System: AMES SALMONELLA TYPHIMURIUM; Strain/Indicator: TA1530; Metabolic Activation: NONE; Method: STANDARD PLATE
Excerpt: The CCRIS database contains chemical records with carcinogenicity, mutagenicity, tumor promotion, and tumor inhibition test results. It was developed by the National Cancer Institute (NCI). Data are derived from studies cited in primary journals, current awareness tools, NCI reports, and other sources. Test results have been reviewed by experts in carcinogenesis and mutagenesis. CCRIS provides historical information from the years 1985 - 2011. It is no longer updated. […]
Activity calls are given as the source filed them. No rule for the calls is given here.
Choose the fitting class; nothing outside active, inactive is accepted.

- compound: "O=C1NC(=O)C(c2ccccc2)(c2ccc(O)cc2)N1 (stereo not given)"
  class_name: "inactive"
- compound: "C1CCC2OCCOCCOCCOCCOC3CCCCC3OCCOCCOCCOCCOC2C1 (stereo not given)"
  class_name: "inactive"
- compound: "CCOC(=O)CN=[N+]=[N-]"
  class_name: "active"
- compound: "O=NO"
  class_name: "active"

Query block: Which result was noted for this compound in the test: [N-]=[N+]=NCC[C@H](N)C(=O)O
Result block: active

----------
Tested on: CCRIS mutagenicity, Ames/micronucleus/aberration tests
experiment_summary: CCRIS mutagenicity studies
condition_parameters: Test System: Ames Salmonella typhimurium; Strain/Indicator: TA98; Metabolic Activation: None; Method: Preincubation
Active and inactive are the calls of the source. How the calls were made is not given here.
Hello, when you answer, please use one of the following outcomes: 1 = active, 0 = inactive

As a guide, the following entries are already answered.
- compound: "CC(C)(C)C(=O)C(Oc1ccc(Cl)cc1)n1ccnc1 (stereo not drawn)"
  class_name: 0
- compound: "O=C(Nc1cccc2c(=O)c3c(ccc4c5cc(NC(=O)c6ccccc6)c6c(=O)c7ccccc7c(=O)c6c5[nH]c43)c(=O)c12)c1ccccc1"
  class_name: 1
- compound: "Nc1ccc(I)cc1Cl"
  class_name: 0
- compound: "Nc1ccc(-c2cc(Cl)c(N)cc2[N+](=O)[O-])cc1Cl"
  class_name: 1
- compound: "COc1ccc(N/C=C/C2=[N+](C)c3ccccc3C2(C)C)c(OC)c1"
  class_name: 0

Query block: Could you kindly confirm the outcome this assay logged for CC(C)CCCC(C)CCCC(C)CCCCC(C)CCCC(C)CCCC(C)C (stereo not drawn) ?
Result block: 0

Query block: Entry to check: O=c1c2ccccc2c(=O)c2c1ccc1c3ccc4c(=O)c5c(ccc6c7ccc8c(=O)c9ccccc9c(=O)c8c7[nH]c65)c(=O)c4c3[nH]c12
Result block: 1

Query block: Now try O=[N+]([O-])c1ccc(Cl)cc1 .
Result block: 0

Query block: What do you have for CN(C)c1ccc2nc3ccc(=[N+](C)C)cc-3sc2c1 ?
Result block: 1

Query block: CC(O)CC(C)(C)O (stereo not drawn) , same question.
Result block: 0

Query block: Entry to check: C=Cc1ccc(S(=O)(=O)O)cc1
Result block: 0

Query block: // same read-out, input: CC(C)c1ccccc1
Result block: 0

Query block: Same for COc1cc(COC(=O)CCCCCCC(C)C)ccc1O
Result block: 0

----------
Test system: CCRIS mutagenicity, Ames/micronucleus/aberration tests
experiment_summary: CCRIS mutagenicity studies
condition_parameters: End Point: IN VITRO MICRONUCLEUS; Test System: V79 CELLS; Metabolic Activation: NONE
Activity calls are given as the source filed them. No rule for the calls is given here. *1 amine or outer side, *2 acyl side, *3 side chain or, on linkers, in order; H or OH if unused. Where a SMILES comes first, the peptide text is derived from it. Bridges are numbered along the chain shown (N, C = ends). Roman numbers before positions name the chains, in order. [ ]: non-standard residue; d: D form. Actinocin(9to1) = Cc1c2oc3c(C)ccc(C(=O)[*:1])c3nc-2c(C(=O)[*:2])c(N)c1=O; NMeV = CN[C@H](C(=O)O)C(C)C; Sar = CNCC(=O)O
Return exactly one item of class 1 (active), class 0 (inactive)

- compound: "CN1C(=O)CN=C(c2ccccc2)c2cc(Cl)ccc21"
  class_name: "class 1"
- compound: "CCOC(N)=O"
  class_name: "class 0"
- compound: "Cc1c2oc3c(C)ccc(C(=O)N[C@@H]4C(=O)N[C@H](C(C)C)C(=O)N5CCC[C@H]5C(=O)N(C)CC(=O)N(C)[C@@H](C(C)C)C(=O)O[C@@H]4C)c3nc-2c(C(=O)N[C@@H]2C(=O)N[C@H](C(C)C)C(=O)N3CCC[C@H]3C(=O)N(C)CC(=O)N(C)[C@@H](C(C)C)C(=O)O[C@@H]2C)c(N)c1=O (I: T[dV]P[Sar][NMeV] / II: T[dV]P[Sar][NMeV]; ester I:1-I:C, II:1-II:C; linker I:N-II:N via Actinocin(9to1))"
  class_name: "class 1"

Now turn to the next compound.
Query block: Which result was noted for this compound in the test: CCOS(C)(=O)=O
Result block: class 1

----------
Test system: CCRIS mutagenicity, Ames/micronucleus/aberration tests
experiment_summary: CCRIS mutagenicity studies
condition_parameters: Test System: AMES SALMONELLA TYPHIMURIUM; Strain/Indicator: TA1537; Metabolic Activation: NONE; Method: STANDARD PLATE
The source made the active and inactive calls. The rule behind the calls is not given here.
Allowed answers: Y (active), N (inactive)

- item_smiles: "C=C(C)C(=O)OCCOCCOC(=O)C(=C)C"
  target_or_system: "CCRIS mutagenicity, Ames/micronucleus/aberration tests"
  class_name: "N"
- item_smiles: "C[C@]12CC[C@@H]3c4ccc(O)cc4CC[C@H]3[C@@H]1CC[C@@H]2O"
  target_or_system: "CCRIS mutagenicity, Ames/micronucleus/aberration tests"
  class_name: "N"
- item_smiles: "C/C=C(/C(=C/C)c1ccc(O)cc1)c1ccc(O)cc1"
  target_or_system: "CCRIS mutagenicity, Ames/micronucleus/aberration tests"
  class_name: "N"
- item_smiles: "CC(C)(C#N)C(C)(C)C#N"
  target_or_system: "CCRIS mutagenicity, Ames/micronucleus/aberration tests"
  class_name: "N"
- item_smiles: "COc1cc(NS(C)(=O)=O)ccc1Nc1c2ccccc2nc2ccc(N=[N+]=[N-])cc12"
  target_or_system: "CCRIS mutagenicity, Ames/micronucleus/aberration tests"
  class_name: "Y"

Attention now shifts to the item below.
Query block: What classification did CCNc1nc(Cl)nc(NC(C)C)n1 end up with in this test?
Result block: N

----------
Test system: CCRIS mutagenicity, Ames/micronucleus/aberration tests
experiment_summary: CCRIS mutagenicity studies
condition_parameters: Test System: AMES SALMONELLA TYPHIMURIUM; Strain/Indicator: TA100; Metabolic Activation: RAT, LIVER, S-9, AROCLOR 1254 (10%); Method: PREINCUBATION
Active and inactive are the calls of the source. The rule behind the calls is not given here.
Tick one outcome: active, inactive

Solved cases below.
- compound: "FC(Cl)(Cl)Cl"
  target_or_system: "CCRIS mutagenicity, Ames/micronucleus/aberration tests"
  class_name: "inactive"
- compound: "Nc1ccc(/C=C/c2ccc(N)c(S(=O)(=O)O)c2)c(S(=O)(=O)O)c1"
  target_or_system: "CCRIS mutagenicity, Ames/micronucleus/aberration tests"
  class_name: "inactive"
- compound: "C=CC(=O)OCCCC"
  target_or_system: "CCRIS mutagenicity, Ames/micronucleus/aberration tests"
  class_name: "inactive"

Query block: Fill in: this test's call for CCOC(=O)C1OC1(C)c1ccccc1 (configuration not stated) is ___
Result block: inactive

Query block: Can you handle O=P(Oc1ccccc1)(Oc1ccccc1)Oc1ccccc1 next?
Result block: inactive

Query block: And for C=CC(=O)NCNC(=O)C=C ?
Result block: inactive

Query block: Consider next the compound O=C(OC1CCCCC1)c1ccccc1C(=O)OC1CCCCC1 in the same way.
Result block: inactive

Query block: What about this compound? Nc1c(Br)cc([N+](=O)[O-])cc1[N+](=O)[O-]
Result block: active

Query block: COc1cc(OC)c(OC)cc1C=O , same question.
Result block: inactive

Query block: Repeat for the following compound: CC(C)=CCl
Result block: inactive

Query block: And CC(C)(COCC1CO1)COCC1CO1 (configuration not stated) ?
Result block: active

Query block: Moving on to the next compound: O=C(OCC1CO1)c1cccc(C(=O)OCC2CO2)c1 (configuration not stated)
Result block: active

Query block: How about NC(=O)c1ccccc1C(N)=O ?
Result block: inactive

Query block: Next compound: O=C(Oc1ccccc1)c1ccccc1O
Result block: inactive

Query block: Then what about the compound CCC(C)(C)C ?
Result block: inactive

Query block: Do the same for CCCCOC(=O)c1ccccc1N please
Result block: inactive

Query block: Now the compound O=C1OC(=O)c2c(Br)c(Br)c(Br)c(Br)c21
Result block: inactive

Query block: Also check O=C(O)c1cccc(Cl)c1
Result block: inactive

Query block: What do you have for CC(=O)NBr ?
Result block: inactive

Query block: Field entry: CC(C)(C)N
Result block: inactive
